- target_or_test_system: rat brain N-type calcium channel subunits (α1B+α2δ+β1b cDNA subunits) (Rattus norvegicus)
- Construct: expressed in transfected cells; host or cells: HEK 293
- Sequence (Q02294 whole entry): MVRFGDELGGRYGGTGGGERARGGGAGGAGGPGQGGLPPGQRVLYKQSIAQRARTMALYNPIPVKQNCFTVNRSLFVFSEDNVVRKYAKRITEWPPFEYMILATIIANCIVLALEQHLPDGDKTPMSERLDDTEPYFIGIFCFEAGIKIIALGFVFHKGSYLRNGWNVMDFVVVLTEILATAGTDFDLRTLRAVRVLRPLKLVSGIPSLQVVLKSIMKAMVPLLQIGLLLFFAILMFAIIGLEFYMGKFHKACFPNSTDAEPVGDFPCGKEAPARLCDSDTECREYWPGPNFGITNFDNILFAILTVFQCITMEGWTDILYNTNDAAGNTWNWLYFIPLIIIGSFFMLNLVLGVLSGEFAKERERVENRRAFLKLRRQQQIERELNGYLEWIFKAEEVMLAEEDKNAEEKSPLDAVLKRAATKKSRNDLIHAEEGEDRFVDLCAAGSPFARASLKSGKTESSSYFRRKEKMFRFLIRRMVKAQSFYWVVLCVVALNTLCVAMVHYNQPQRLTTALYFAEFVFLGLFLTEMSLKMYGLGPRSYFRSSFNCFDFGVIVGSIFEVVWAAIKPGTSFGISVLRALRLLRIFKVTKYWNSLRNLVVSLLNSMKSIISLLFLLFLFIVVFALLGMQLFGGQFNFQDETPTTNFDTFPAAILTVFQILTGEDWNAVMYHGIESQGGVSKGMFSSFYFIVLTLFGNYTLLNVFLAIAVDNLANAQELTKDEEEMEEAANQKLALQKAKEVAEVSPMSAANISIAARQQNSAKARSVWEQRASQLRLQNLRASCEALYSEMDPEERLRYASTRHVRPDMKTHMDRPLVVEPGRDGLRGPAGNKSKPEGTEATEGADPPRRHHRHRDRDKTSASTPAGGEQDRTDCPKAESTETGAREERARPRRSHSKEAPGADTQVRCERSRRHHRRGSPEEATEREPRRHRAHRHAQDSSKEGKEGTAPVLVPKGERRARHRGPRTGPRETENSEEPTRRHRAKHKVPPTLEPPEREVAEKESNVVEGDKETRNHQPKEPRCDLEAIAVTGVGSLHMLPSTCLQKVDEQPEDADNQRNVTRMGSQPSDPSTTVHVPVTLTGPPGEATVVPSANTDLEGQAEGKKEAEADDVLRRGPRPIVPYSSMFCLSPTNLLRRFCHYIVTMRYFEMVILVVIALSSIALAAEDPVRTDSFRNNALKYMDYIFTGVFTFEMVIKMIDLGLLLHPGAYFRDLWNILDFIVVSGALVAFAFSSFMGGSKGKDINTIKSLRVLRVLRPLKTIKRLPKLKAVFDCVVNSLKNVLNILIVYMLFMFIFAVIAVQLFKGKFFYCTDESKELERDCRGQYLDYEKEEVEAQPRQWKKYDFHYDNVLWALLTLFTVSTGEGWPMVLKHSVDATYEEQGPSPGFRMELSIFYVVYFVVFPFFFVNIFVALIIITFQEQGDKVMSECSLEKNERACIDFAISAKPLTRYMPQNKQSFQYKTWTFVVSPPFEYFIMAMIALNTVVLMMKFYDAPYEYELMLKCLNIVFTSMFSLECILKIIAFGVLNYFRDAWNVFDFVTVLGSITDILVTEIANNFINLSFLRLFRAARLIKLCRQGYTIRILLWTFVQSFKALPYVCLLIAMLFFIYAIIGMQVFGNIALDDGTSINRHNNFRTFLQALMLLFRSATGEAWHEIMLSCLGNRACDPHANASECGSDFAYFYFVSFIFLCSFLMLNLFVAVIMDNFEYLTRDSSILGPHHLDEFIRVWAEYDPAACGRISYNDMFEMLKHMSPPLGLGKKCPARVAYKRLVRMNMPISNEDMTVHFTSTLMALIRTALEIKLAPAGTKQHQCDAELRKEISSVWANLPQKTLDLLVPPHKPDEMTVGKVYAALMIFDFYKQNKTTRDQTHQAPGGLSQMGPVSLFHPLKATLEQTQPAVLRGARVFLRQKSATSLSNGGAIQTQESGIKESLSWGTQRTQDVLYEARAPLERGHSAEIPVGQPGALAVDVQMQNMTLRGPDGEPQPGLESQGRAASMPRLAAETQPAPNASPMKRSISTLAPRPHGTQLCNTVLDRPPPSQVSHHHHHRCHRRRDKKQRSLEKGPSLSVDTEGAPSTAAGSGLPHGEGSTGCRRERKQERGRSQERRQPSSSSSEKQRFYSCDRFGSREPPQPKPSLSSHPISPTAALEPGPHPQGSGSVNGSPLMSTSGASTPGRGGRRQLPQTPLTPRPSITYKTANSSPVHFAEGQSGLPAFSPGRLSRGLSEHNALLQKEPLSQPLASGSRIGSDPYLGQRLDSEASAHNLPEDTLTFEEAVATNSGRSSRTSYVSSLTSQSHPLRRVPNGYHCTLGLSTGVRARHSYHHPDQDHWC
- measurement_description: N-type calcium channel block, whole cell patch clamp in HEK 293 cells
- Assay type: cell-based
- test_context: pulse frequency 0.2 Hz (frequency dependent block); holding potential −80 mV to +10 mV; read-out: IC50 @ 0.2 Hz
The compounds listed here are annotated with their pIC50.
In simple prose, pIC50 is minus the logarithm base ten of a concentration in moles per litre.

Illustrative cases are given below, each with its answer.
# input compound: COc1c(C(C)(C)C)cc(C(=O)NC/C=C\CNC(=O)CCCCC(c2ccc(F)cc2)c2ccc(F)cc2)cc1C(C)(C)C [Compound P2] ; wanted: its pIC50
6.51

# input compound: `O=C(CC(c1ccccc1)c1ccccc1)NCC#CCN(Cc1cccnc1)Cc1cccnc1` ; wanted: its pIC50
6.38

# input compound: `Cc1ccc(C(=O)NC/C=C/CNC(=O)CCCCC(c2ccc(F)cc2)c2ccc(F)cc2)cc1` ; wanted: its pIC50
6.88

More entries:
# input compound: `O=C(CC(c1ccccc1)c1ccccc1)NCC#CCN(Cc1ccccn1)Cc1ccccn1` ; wanted: its pIC50
6.25

# input compound: `COc1cc(C(=O)NCC#CCNC(=O)CCCCC(c2ccc(F)cc2)c2ccc(F)cc2)cc(OC)c1OC` ; wanted: its pIC50
6.86

# input compound: `CC(C)c1ccc(C(=O)NCC#CCNC(=O)CCCCC(c2ccc(F)cc2)c2ccc(F)cc2)cc1` ; wanted: its pIC50
6.12

# input compound: COc1cc(C(=O)NC/C=C\CNC(=O)CCCCC(c2ccc(F)cc2)c2ccc(F)cc2)cc(OC)c1OC [Compound P1] ; wanted: its pIC50
6.72

----------
- System: Rings from Rat Portal Vein maximally pre-contracted with PE
- measurement_description: Relaxation of pre-contracted rings from rat portal vein
- test_context: compound at 10^−5 M, rings maximally pre-contracted with PE at 10^−4 M, read-out: Portal vein Max % relax
property: Emax at 10 µM (%)
Return type: number; implicit unit %.

Illustrative cases are given below, each with its answer.
# input compound: `O=C(CCCCC(c1ccc(F)cc1)c1ccc(F)cc1)NCC#CCNC(=O)c1ccc(Cl)cc1` ; wanted: its Emax at 10 µM
25

# input compound: `O=C(CCCCC(c1ccc(F)cc1)c1ccc(F)cc1)NCC#CCNC(=O)c1ccc(F)cc1` ; wanted: its Emax at 10 µM
51

# input compound: `Cc1ccc(C(=O)NCC#CCNC(=O)CCCCC(c2ccc(F)cc2)c2ccc(F)cc2)cc1` ; wanted: its Emax at 10 µM
34

# input compound: `O=C(CC(c1ccccc1)c1ccccc1)NCC#CCN(Cc1ccccn1)Cc1ccccn1` ; wanted: its Emax at 10 µM
49

More entries:
# input compound: `O=C(CCCCC(c1ccc(F)cc1)c1ccc(F)cc1)NC/C=C\CNC(=O)COc1ccc(Cl)cc1` ; wanted: its Emax at 10 µM
28

# input compound: `COc1ccc(C(=O)NCC#CCNC(=O)CCCCC(c2ccc(F)cc2)c2ccc(F)cc2)cc1` ; wanted: its Emax at 10 µM
51

# input compound: `CC(C)c1ccc(C(=O)NCCCCNC(=O)CCCCC(c2ccc(F)cc2)c2ccc(F)cc2)cc1` ; wanted: its Emax at 10 µM
51

# input compound: `O=C(CCCCC(c1ccc(F)cc1)c1ccc(F)cc1)NC/C=C\CNC(=O)c1ccc(F)cc1` ; wanted: its Emax at 10 µM
38

Values from patent US7511077B2
